- experiment_notes: Protein binding in rat brain homogenate at 10 uM incubated for 12 hrs by equilibrium dialysis method
- Assay type: ADME, tissue-based
- condition_info: read-out: PB (converted)
result_type: fraction unbound at 12 h, 10 µM
Respond with the number and no other words.

N#Cc1cccc(Oc2nc(-c3cccc(C#N)c3)ncc2C(=O)O)c1 ... 0.046

Consider the additional compound presented here.
Task: Recorded fraction unbound at 12 h, 10 µM of N#Cc1cccc(-c2nc(C(F)F)c(C(=O)O)n2OCc2csc(N)n2)c1 , please.
Result: 0.092

###

- experiment_notes: AUC (0 to infinity) male Sprague-Dawley rat at 10 mg/kg, po measured up to 24 hrs by LC-MS/MS analysis
- Assay type: ADME, organism-based
- condition_info: male, Sprague-Dawley, in vivo
result_type: AUC(0-inf) (ng·h/mL)
Write the value in ng·h/mL as a bare number.

Task: What does the data say about its AUC(0-inf)? Entry: N#Cc1cccc(-c2nc(C(F)F)c(C(=O)O)n2OCc2csc(N)n2)c1
Result: 36
